- assayed target: Human immunodeficiency virus type 1 reverse transcriptase (Human immunodeficiency virus 1, UniProt Q72547, Y181L)
- test method notes: Inhibitory concentration against HIV-1 reverse transcriptase mutant (Tyr-181 to Leu)
measurement kind: IC50

>>> result_value("C[C@H]1[C@H](O)c2c(c3c(c4c(-c5ccccc5)cc(=O)oc24)OC(C)(C)C=C3)O[C@@H]1C")
"410 nM"

---

# pIC50 listing for each entry below
- System: Human immunodeficiency virus 1
- test method notes: Anti-HIV activity against HIV-1 in Molt-4 cells using 7-day infective assay
- Format: functional, organism-based
- experimental conditions: Human immunodeficiency virus 1, MOLT-4, 168 h
pIC50: −log10 of the molar value.
measurement kind: pIC50

>>> result_value("C[C@H]1[C@H](O)c2c(c3c(c4c(-c5ccccc5)cc(=O)oc24)OC(C)(C)C=C3)O[C@@H]1C")
5.85
>>> result_value("C[C@@H]1[C@@H](C)Oc2c3c(c4c(-c5ccccc5)cc(=O)oc4c2[C@@H]1O)OC(C)(C)C=C3")
5.80
>>> result_value("CC(C)=CCN1Cc2cc(Cl)cc3[nH]c(=S)n(c23)C[C@@H]1C")
6.72

---

- assayed target: Human immunodeficiency virus type 1 reverse transcriptase (Human immunodeficiency virus 1, UniProt Q72547, Y181C)
- test method notes: Inhibitory concentration against HIV-1 reverse transcriptase mutant (Tyr-181 to Cys)
measurement kind: IC50 (nM)

>>> result_value("C[C@H]1[C@H](O)c2c(c3c(c4c(-c5ccccc5)cc(=O)oc24)OC(C)(C)C=C3)O[C@@H]1C")
160

---

# IC50 listing for each entry below
- assayed target: Human immunodeficiency virus type 1 reverse transcriptase (Human immunodeficiency virus 1, UniProt Q72547)
measurement kind: IC50 (µM)

>>> result_value("C[C@H]1Oc2c3c(c4c(-c5ccccc5)cc(=O)oc4c2C(=O)[C@@H]1C)OC(C)(C)C=C3")
10
>>> result_value("CC(=O)O[C@@H]1c2c(c3c(c4c(-c5ccccc5)cc(=O)oc24)OC(C)(C)C=C3)O[C@H](C)[C@H]1C")
0.72
>>> result_value("C[C@@H]1[C@H](O)c2c(c3c(c4c(-c5ccccc5)cc(=O)oc24)OC(C)(C)C=C3)O[C@@H]1C")
30
>>> result_value("C[C@H]1[C@H](O)c2c(c3c(c4c(-c5ccccc5)cc(=O)oc24)OC(C)(C)C=C3)O[C@@H]1C")
0.038
>>> result_value("CC1=Cc2c(c3c(c4c(-c5ccccc5)cc(=O)oc24)OC(C)(C)C=C3)O[C@@H]1C")
9
>>> result_value("C[C@H]1[C@@H](C)Oc2c3c(c4c(-c5ccccc5)cc(=O)oc4c2[C@@H]1O)OC(C)(C)C=C3")
11
>>> result_value("C[C@@H]1[C@H](C(=O)c2ccc(Br)cc2)c2c(c3c(c4c(-c5ccccc5)cc(=O)oc24)OC(C)(C)C=C3)O[C@@H]1C")
46
>>> result_value("CC1[C@H](O)c2c(c3c(c4c(-c5ccccc5)cc(=O)oc24)O[C@H]2[C@@H]3C2(C)C)O[C@@H]1C (single isomer, unassigned)")
70
>>> result_value("C[C@@H]1C(=O)c2c(c3c(c4c(-c5ccccc5)cc(=O)oc24)OC(C)(C)C=C3)O[C@@H]1C")
100
>>> result_value("CC(C)=CCN1Cc2cc(Cl)cc3[nH]c(=S)n(c23)C[C@@H]1C")
0.7
>>> result_value("C[C@@H]1[C@@H](C)Oc2c3c(c4c(-c5ccccc5)cc(=O)oc4c2[C@@H]1O)OC(C)(C)C=C3")
0.13
